Source of measurements: patent US20250281462A1

- assay explanation: Tissue concentrations (plasma, brain, liver) after single oral dose 25 mg/kg in mice
- Type: in vivo
- test settings: male, C57BL6/J, mouse, liver, po, 25 mg/kg, 25 mg/kg p.o., 2880.0 minutes, average, read-out: concentration in liver
outcome measure: concentration at 2880 min

- mol smiles: "CC(C)(C)c1ccc(-c2nc3ccccc3[nH]2)cc1"
  assay result: "0.3 ng/mL"

---

- assay explanation: Phase 1 single ascending dose (SAD) trial, plasma pharmacokinetics (Part 1)
- test settings: male, human, in vivo, po, 60 mg, Cmax, human plasma; Regimen A: 60 mg TQS-168 MC oral suspension, fasted, single dose

- mol smiles: "CC(C)(C)c1ccc(-c2nc3ccccc3[nH]2)cc1"
  Cmax [nM]: 110

---

- assay explanation: Phase 1 single ascending dose (SAD) trial, plasma pharmacokinetics (Part 1)
- test settings: male, human, in vivo, po, 540 mg, Tmax, human plasma; Regimen C: 540 mg TQS-168 MC oral suspension, fasted, single dose; median

- mol smiles: "CC(C)(C)c1ccc(-c2nc3ccccc3[nH]2)cc1"
  unit symbol: "h"
  Tmax: 2.25

---

- assay explanation: Phase 1 single ascending dose (SAD) trial, plasma pharmacokinetics (Part 1)
- test settings: male, human, in vivo, po, 90 mg, AUC(0-inf), human plasma; Regimen G: 90 mg TQS-168 SDD oral suspension, fasted, single dose; geometric mean
outcome measure: AUC(0-inf) (ng·h/mL)

- compound: "CC(C)(C)c1ccc(-c2nc3ccccc3[nH]2)cc1 [TQS-168, 2-(4-tert-butylphenyl)-1H-benzimidazole]"
  assay result: 195

---

- assay explanation: Tissue concentrations (plasma, brain, liver) after single oral dose 25 mg/kg in mice
- Format: in vivo
- test settings: male, C57BL6/J, mouse, brain, po, 25 mg/kg, 25 mg/kg p.o., 120.0 minutes, average, read-out: concentration in brain
outcome measure: concentration at 120 min (ng/mL)

- mol smiles: "CC(C)(C)c1ccc(-c2nc3ccccc3[nH]2)cc1"
  assay result: 236

---

- assay explanation: Phase 1 multiple dose trial, plasma pharmacokinetics (Part 2)
- test settings: male, human, in vivo, 90 mg, maximum individual Cmax, human plasma; Regimen J 90 mg SDD fed; Day 1
outcome measure: Cmax (ng/mL)

- mol smiles: "CC(C)(C)c1ccc(-c2nc3ccccc3[nH]2)cc1"
  outcome measure: "Cmax"
  assay result: 65.8

---

- assay explanation: Plasma concentrations of TQS-168 and TQS-621 after single oral dose 50 mg/kg in mice, three formulations
- Format: in vivo
- test settings: male, C57BL/6, mouse, plasma, po, 50 mg/kg, mice plasma, TQS-168 50 mg/kg p.o., Group 1 (suspension, 0.5% methylcellulose in PBS), mean; read-out: tmax

- mol smiles: "CC(C)(C)c1ccc(-c2nc3cc(O)ccc3[nH]2)cc1"
  unit symbol: "h"
  Tmax: 1.33
- mol smiles: "CC(C)(C)c1ccc(-c2nc3ccccc3[nH]2)cc1"
  unit symbol: "h"
  Tmax: 0.833

---

- assay explanation: Phase 1 multiple dose trial, plasma pharmacokinetics (Part 2)
- test settings: male, human, in vivo, 300 mg, Tmax (median), Regimen K, 300 mg TQS-168 SDD QD, fed; Day 7; plasma; median

- molecule: "CC(C)(C)c1ccc(-c2nc3ccccc3[nH]2)cc1 [TQS-168, 2-(4-tert-butylphenyl)-1H-benzimidazole]"
  Tmax, h: 4
